Entries annotated with measured Papp A→B at 2 h, 10 µM
test: Bi-directional permeability, CACO-2; assay type: in vitro ADME; conditions: human, Caco-2, pH 7, Caco-2, 10 μM, replicate 2; read-out: Papp, A-to-B Rep. 2
Give the quantity in ×10⁻⁶ cm/s, number only.

# input Entry CCc1c(OC)cccc1C(=O)NN(C(=O)c1cc(C)cc(C)c1)C(C)(C)C needs its Papp A→B at 2 h, 10 µM filled in; supply it.
# output 31.4

Further cases:
# input Entry COc1cccc(C(=O)NN(C(=O)c2cc(C)cc(C)c2)C(C)(C)C)c1C needs its Papp A→B at 2 h, 10 µM filled in; supply it.
# output 26.8
